Answer each item with its documented pIC50.
- ASSAYED SYSTEM: 15-PGDH/HPGD (Homo sapiens, UniProt P15428)
- Sequence (P15428 1-266): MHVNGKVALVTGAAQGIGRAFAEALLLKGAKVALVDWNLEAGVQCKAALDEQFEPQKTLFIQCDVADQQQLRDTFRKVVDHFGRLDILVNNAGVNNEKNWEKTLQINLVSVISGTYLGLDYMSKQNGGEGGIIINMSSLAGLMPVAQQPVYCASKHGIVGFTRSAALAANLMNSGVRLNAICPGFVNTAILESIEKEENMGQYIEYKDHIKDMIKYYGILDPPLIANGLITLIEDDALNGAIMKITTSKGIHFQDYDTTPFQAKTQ
- PROCEDURE TEXT: hPGDH inhibitor screening biochemical assay
- COND: 10 nM enzyme, 15 μM Prostaglandin E2, 0.25 mM NAD, fluorescence ex/em 340/485 nm
pIC50: −log10 of the molar value.

Before answering, review these 3 worked examples.
# COMPOUND, ASSAYED SYSTEM, pIC50
data = [
    ("O=C(O)[C@@H]1CCN(c2ccc(-n3ncc4cc([C@H](O)COC5CCC5)cnc43)cc2)C1 [Compound 87B]", "15-PGDH/HPGD (Homo sapiens, UniProt P15428)", "6.00 to 7.00"),
    ("CCOC(C)(C)[C@@H](O)c1cnc2c(cnn2-c2ccc(C(=O)O)cc2)c1 [Compound 53B]", "15-PGDH/HPGD (Homo sapiens, UniProt P15428)", "> 7.00"),
    ("CC(C)NC[C@H](O)c1cnc2c(ccn2-c2cccc(-c3nnc[nH]3)c2)n1 [Compound 22A]", "15-PGDH/HPGD (Homo sapiens, UniProt P15428)", "≤ 6.00"),
]

Batch request: pIC50 for each of the following compounds.
1. O[C@@H](c1cnc2c(cnn2-c2cccc(-c3nnc[nH]3)c2)c1)C1C2CCCCC21 (some centres unmarked) [Compound 51B]
2. CC(C)C[C@H](O)C(O)c1cnc2c(ccn2-c2cccc(-c3nnc[nH]3)c2)c1 (stereo in doubt)
3. CCCC[C@@H](O)c1cnc2c(ccn2-c2cc(Cl)cc(-c3nnc[nH]3)c2)c1 [Compound 17A]
4. O[C@H](COC1CCC1)c1cnc2c(cnn2-c2cccc(-c3nnc[nH]3)c2)c1 [Compound 24B]
5. CSc1ccc(-n2ncc3cc([C@@H](O)COC4CCC4)cnc32)cc1 [Compound 119A]
6. O=C(O)c1ccc(-n2ncc3cc([C@@H](O)COC4CCC4)cnc32)cc1F [Compound 94A]

["6.00 to 7.00", "> 7.00", "> 7.00", "> 7.00", "> 7.00", "> 7.00"]

For the 5 compounds below, give their pIC50 values.
1. CC(C)OC[C@H](O)c1cnc2c(cnn2-c2ccc(CCCC(=O)O)c(F)c2)c1 [Compound 77B]
2. COCC[C@H](O)c1cnc2c(cnn2-c2cccc(-c3nnc[nH]3)c2)c1 [Compound 36B]
3. CSc1cccc(-n2ncc3cc([C@H](O)COC4CCC4)cnc32)c1 [Compound 122B]
4. O[C@@H](COC1CCC1)c1cnc2c(cnn2-c2cccc(-c3nnc[nH]3)c2)c1 [Compound 24A]
5. O=C(O)c1ccc(-n2ncc3cc([C@@H](O)COC4CCC4)cnc32)cn1 [Compound 96B]

["> 7.00", "> 7.00", "≤ 6.00", "> 7.00", "> 7.00"]
